From: ChEMBL document CHEMBL1821564

organism: Homo sapiens; test: Selectivity index, ratio of IC50 for human recombinant MAO-A to IC50 for human recombinant MAO-B
Recorded measurements of Ratio IC50, one per entry

Sample records with Ratio IC50:
* CC(=O)N1N=C(c2ccc(C)cc2)OC1c1ccc(C)cc1 (stereo not given) | > 1.5
* CC(=O)N1N=C(c2ccc(Br)cc2)O[C@@H]1c1ccc(Cl)cc1 | > 1210
* CC(=O)N1N=C(c2ccc(Br)cc2)OC1c1ccc(Cl)cc1 (racemic) | > 453
* CC(=O)N1N=C(c2ccc(Br)cc2)OC1c1ccc(Cl)cc1 (stereo in doubt; 4s) | > 453
* CC(=O)N1N=C(c2ccc(Cl)cc2)OC1c1ccc(Cl)cc1 (stereo in doubt; 4p) | > 867

Fill blank: measured Ratio IC50 of the compound "CC(=O)N1N=C(c2ccc(Cl)cc2)O[C@@H]1c1ccc(Cl)cc1" is ____. > 994

Do the same for CC(=O)N1N=C(c2ccccc2)OC1c1ccc(F)cc1 (stereo not given) please > 10
